System Tested: GDP-bound KRAS wild-type protein (Homo sapiens)
Test Protocol: Binding to KRAS by surface plasmon resonance (SPR), Single Cycle Kinetics
Experimental Parameters: SPR, Single Cycle Kinetics, GDP-bound KRAS wild-type protein; read-out: KRAS KD
# Kd per record follows
Recorded Endpoint: Kd

{"Structure Notation": "CCO[C@@H]1C[C@H]2C(=O)NC3(CC(C)(C)C3)C(=O)N(C)[C@@H](C3CCCC3)C(=O)N(C)[C@H](C(=O)N(C)C)CC(=O)N(C)[C@@H](C)C(=O)N[C@@H]([C@@H](C)CC)C(=O)N(C)CC(=O)N(C)[C@H]3C/C=C\\CCN(C3=O)[C@@H](Cc3ccc(C(F)(F)F)cc3)C(=O)N(C)CC(=O)N[C@@H](CCc3ccc(C(F)(F)F)c(OC)c3)C(=O)N2C1", "Result Value": "0.036 nM"}
{"Structure Notation": "CCO[C@@H]1C[C@H]2C(=O)NC3(CC(C)(C)C3)C(=O)N(C)[C@@H](C3CCCC3)C(=O)N(C)[C@H](C(=O)N(C)C)CC(=O)N(C)[C@@H](C3CCC3)C(=O)N[C@@H]([C@@H](C)CC)C(=O)N(C)CC(=O)N(C)[C@H]3C/C=C\\CCN(C3=O)[C@@H](Cc3ccc(C(F)(F)F)cc3)C(=O)N(C)CC(=O)N[C@@H](CCc3ccc(C(F)(F)F)c(OC)c3)C(=O)N2C1", "Result Value": "0.053 nM"}
{"Structure Notation": "CCCOC[C@H]1C(=O)N[C@@H]([C@@H](C)CC)C(=O)N(C)CC(=O)N(C)[C@H]2C/C=C\\CCN(C2=O)[C@@H](Cc2ccc(C(F)(F)F)cc2)C(=O)N(C)CC(=O)N[C@@H](CCc2cc(F)c(C(F)(F)F)c(F)c2)C(=O)N2CC(F)(F)C[C@H]2C(=O)NC2(CC(C)(C)C2)C(=O)N(C)[C@@H](C2CCCC2)C(=O)N(C)[C@H](C(=O)N(C)C)CC(=O)N1C", "Result Value": "0.067 nM"}

====

System Tested: GDP-bound KRAS wild-type protein (Homo sapiens, UniProt P01116)
Sequence (P01116 whole entry): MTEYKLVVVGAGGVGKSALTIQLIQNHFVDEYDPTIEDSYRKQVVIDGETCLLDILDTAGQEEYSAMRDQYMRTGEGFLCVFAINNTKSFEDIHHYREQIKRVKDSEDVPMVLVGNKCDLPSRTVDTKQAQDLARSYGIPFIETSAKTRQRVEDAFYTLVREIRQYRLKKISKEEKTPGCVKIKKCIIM
Test Protocol: Binding to KRAS by surface plasmon resonance (SPR), Single Cycle Kinetics
Experimental Parameters: SPR Single Cycle Kinetics, GDP-bound KRAS wild-type protein, 1:1 binding model; read-out: KRAS KD
Where a SMILES comes first, the peptide text is derived from it. Bridges are numbered along the chain shown (N, C = ends). [ ]: non-standard residue; d: D form. The star is where a group is joined. hPhe(3-Cl-4-CF3) = N[C@@H](CCc1ccc(C(F)(F)F)c(Cl)c1)C(=O)O; NPrPhe(4-CF3) = CCCN[C@@H](Cc1ccc(C(F)(F)F)cc1)C(=O)O; NEtPhe(4-Me) = CCN[C@@H](Cc1ccc(C)cc1)C(=O)O; NMeGly(cPent) = CN[C@H](C(=O)O)C1CCCC1; NMeD = CN[C@@H](CC(=O)O)C(=O)O; NMeL = CN[C@@H](CC(C)C)C(=O)O; NMeAbu = CC[C@H](NC)C(=O)O; Morpholide = C1CN(*)CCO1; Ac5c = NC1(C(=O)O)CCCC1; Sar = CNCC(=O)O
Recorded Endpoint: Kd (nM)

{"Compound": "CCCN1C(=O)CN(C)C(=O)CN(C)C(=O)[C@H]([C@@H](C)CC)NC(=O)[C@H](CC)N(C)C(=O)C[C@@H](C(=O)N2CCOCC2)N(C)C(=O)[C@H](C2CCCC2)N(C)C(=O)C2(CCCC2)NC(=O)[C@@H]2CCCN2C(=O)[C@H](CCc2ccc(C(F)(F)F)c(Cl)c2)NC(=O)CN(C)C(=O)[C@@H]1Cc1ccc(C(F)(F)F)cc1 [PP0190] ([NMeAbu]I[Sar][Sar][NPrPhe(4-CF3)][Sar][hPhe(3-Cl-4-CF3)]P[Ac5c][NMeGly(cPent)][NMeD]-Morpholide; lactam N-11)", "Recorded Endpoint": "Kd", "Result Value": 0.13}
{"Compound": "CC[C@H](C)[C@@H]1NC(=O)[C@H](CC(C)C)N(C)C(=O)C[C@@H](C(=O)N2CCOCC2)N(C)C(=O)[C@H](CC(C)C)N(C)C(=O)C2(CCCC2)NC(=O)[C@@H]2CCCN2C(=O)[C@H](CCc2ccc(C(F)(F)F)c(Cl)c2)NC(=O)CN(C)C(=O)[C@H](Cc2ccc(C)cc2)N(CC)C(=O)CN(C)C(=O)CN(C)C1=O [PP0045] ([NMeL]I[Sar][Sar][NEtPhe(4-Me)][Sar][hPhe(3-Cl-4-CF3)]P[Ac5c][NMeL][NMeD]-Morpholide; lactam N-11)", "Recorded Endpoint": "Kd", "Result Value": 2.3}
{"Compound": "CC[C@H](C)[C@@H]1NC(=O)[C@H](CC)N(C)C(=O)C[C@@H](C(=O)N(C)C)N(CC)C(=O)[C@H](C2CCCC2)N(C)C(=O)C2(CCC2)NC(=O)[C@@H]2C[C@H](N3CCC(F)(F)CC3)CN2C(=O)[C@H](CCc2cc(F)c(C(F)(F)F)c(F)c2)NC(=O)CN(C)C(=O)[C@H](Cc2ccc(C(F)(F)F)cc2)N2CCCC[C@@H](C2=O)N(C)C(=O)CN(C)C1=O [PP0659]", "Recorded Endpoint": "Kd", "Result Value": 0.42}

====

# Kd per record follows
System Tested: GDP-bound KRAS wild-type protein (Homo sapiens)
Test Protocol: Binding to KRAS by surface plasmon resonance (SPR), Single Cycle Kinetics
Experimental Parameters: SPR, Single Cycle Kinetics, GDP-bound KRAS wild-type protein; read-out: KRAS KD

{"Structure Notation": "CCO[C@@H]1C[C@H]2C(=O)NC3(CC(C)(C)C3)C(=O)N(C)[C@@H](C(CC)CC)C(=O)N(C)[C@H](C(=O)N3CCCC3)CC(=O)N(C)[C@@H](C)C(=O)N[C@@H]([C@@H](C)CC)C(=O)N(C)CC(=O)N(C)[C@H]3C/C=C\\CCN(C3=O)[C@@H](Cc3ccc(C)cc3)C(=O)N(C)CC(=O)N[C@@H](CCc3ccc(C(F)(F)F)c(OC)c3)C(=O)N2C1", "Kd": "0.63 nM"}
{"Structure Notation": "CCCN(C)C(=O)[C@@H]1CC(=O)N(C)[C@@H](CC(F)F)C(=O)N[C@@H]([C@@H](C)CC)C(=O)N(C)CC(=O)N(C)[C@H]2C/C=C\\CCN(C2=O)[C@@H](Cc2ccc(C(F)(F)F)cc2)C(=O)N(C)CC(=O)N[C@@H](CCc2cc(F)c(Cl)c(F)c2)C(=O)N2C[C@H](OCC)C[C@H]2C(=O)NC2(CC(C)(C)C2)C(=O)N(C)[C@@H](C2CCCC2)C(=O)N1C", "Kd": "0.31 nM"}
{"Structure Notation": "CCO[C@@H]1C[C@H]2C(=O)NC3(CCCC3)C(=O)N(C)[C@@H](C3CCCC3)C(=O)N(C)[C@H](C(=O)N(C)C)CC(=O)N(C)[C@@H](CC(C)C)C(=O)N[C@@H]([C@@H](C)CC)C(=O)N(C)CC(=O)N(C)[C@H]3C/C=C\\CCN(C3=O)[C@@H](Cc3ccc(C)cc3)C(=O)N(C)CC(=O)N[C@@H](CCc3ccc(C(F)(F)F)c(Cl)c3)C(=O)N2C1", "Kd": "0.096 nM"}

====

System Tested: GDP-bound KRAS wild-type protein (Homo sapiens, UniProt P01116)
Test Protocol: Binding to KRAS by surface plasmon resonance (SPR), Single Cycle Kinetics
Experimental Parameters: SPR, Single Cycle Kinetics, GDP-bound KRAS wild-type protein; read-out: KRAS KD

{"Compound": "CC[C@H](C)[C@@H]1NC(=O)[C@H](CC2CCC2)N(C)C(=O)C[C@@H](C(=O)N(C)C)N(C)C(=O)[C@H](C2CCCC2)N(C)C(=O)C2(CC(C)(C)C2)NC(=O)[C@@H]2C[C@H](C)CN2C(=O)[C@H](CCc2cc(F)c(C(F)(F)F)c(F)c2)NC(=O)CN(C)C(=O)[C@H](Cc2ccc(C(F)(F)F)cc2)N2CC/C=C\\C[C@@H](C2=O)N(C)C(=O)CN(C)C1=O [PP1684]", "Kd (nM)": 0.15}
{"Compound": "CCCOC[C@H]1C(=O)N[C@@H]([C@@H](C)CC)C(=O)N(C2CC2)CC(=O)N(C)[C@H]2C/C=C\\CCN(C2=O)[C@@H](Cc2ccc(C)cc2)C(=O)N(C)CC(=O)N[C@@H](CCc2ccc(C(F)(F)F)c(OC)c2)C(=O)N2C[C@@H](C)C[C@H]2C(=O)N(C)C2(CCC2)C(=O)N(C)[C@@H](C2CCCC2)C(=O)N(C)[C@H](C(=O)N(C)C)CC(=O)N1C [PP2367]", "Kd (nM)": 0.075}
{"Compound": "CC[C@H](C)[C@@H]1NC(=O)[C@H](CC)N(C)C(=O)C[C@@H](C(=O)N(C)C)N(C)C(=O)[C@H](C2CCCC2)N(C)C(=O)C2(CCC2)NC(=O)[C@@H]2C[C@H](OC)CN2C(=O)[C@H](CCc2cc(F)c(C(F)(F)F)c(F)c2)NC(=O)CN(C)C(=O)[C@H](Cc2ccc(C(F)(F)F)cc2)N2CC/C=C\\C[C@@H](C2=O)N(C)C(=O)CN(C)C1=O [PP1128]", "Kd (nM)": 0.12}
